# test target: SOS1-KRAS (Homo sapiens, UniProt P01116+Q07889, G12C)
# Sequence (P01116 whole entry G12C, stated change not applied): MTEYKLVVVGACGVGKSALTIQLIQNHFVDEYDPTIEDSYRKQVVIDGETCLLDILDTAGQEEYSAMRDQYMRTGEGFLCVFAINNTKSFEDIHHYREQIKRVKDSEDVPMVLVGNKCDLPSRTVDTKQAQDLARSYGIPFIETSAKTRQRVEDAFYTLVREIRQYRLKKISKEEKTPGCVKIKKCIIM
# Sequence (Q07889 whole entry, stated change not applied): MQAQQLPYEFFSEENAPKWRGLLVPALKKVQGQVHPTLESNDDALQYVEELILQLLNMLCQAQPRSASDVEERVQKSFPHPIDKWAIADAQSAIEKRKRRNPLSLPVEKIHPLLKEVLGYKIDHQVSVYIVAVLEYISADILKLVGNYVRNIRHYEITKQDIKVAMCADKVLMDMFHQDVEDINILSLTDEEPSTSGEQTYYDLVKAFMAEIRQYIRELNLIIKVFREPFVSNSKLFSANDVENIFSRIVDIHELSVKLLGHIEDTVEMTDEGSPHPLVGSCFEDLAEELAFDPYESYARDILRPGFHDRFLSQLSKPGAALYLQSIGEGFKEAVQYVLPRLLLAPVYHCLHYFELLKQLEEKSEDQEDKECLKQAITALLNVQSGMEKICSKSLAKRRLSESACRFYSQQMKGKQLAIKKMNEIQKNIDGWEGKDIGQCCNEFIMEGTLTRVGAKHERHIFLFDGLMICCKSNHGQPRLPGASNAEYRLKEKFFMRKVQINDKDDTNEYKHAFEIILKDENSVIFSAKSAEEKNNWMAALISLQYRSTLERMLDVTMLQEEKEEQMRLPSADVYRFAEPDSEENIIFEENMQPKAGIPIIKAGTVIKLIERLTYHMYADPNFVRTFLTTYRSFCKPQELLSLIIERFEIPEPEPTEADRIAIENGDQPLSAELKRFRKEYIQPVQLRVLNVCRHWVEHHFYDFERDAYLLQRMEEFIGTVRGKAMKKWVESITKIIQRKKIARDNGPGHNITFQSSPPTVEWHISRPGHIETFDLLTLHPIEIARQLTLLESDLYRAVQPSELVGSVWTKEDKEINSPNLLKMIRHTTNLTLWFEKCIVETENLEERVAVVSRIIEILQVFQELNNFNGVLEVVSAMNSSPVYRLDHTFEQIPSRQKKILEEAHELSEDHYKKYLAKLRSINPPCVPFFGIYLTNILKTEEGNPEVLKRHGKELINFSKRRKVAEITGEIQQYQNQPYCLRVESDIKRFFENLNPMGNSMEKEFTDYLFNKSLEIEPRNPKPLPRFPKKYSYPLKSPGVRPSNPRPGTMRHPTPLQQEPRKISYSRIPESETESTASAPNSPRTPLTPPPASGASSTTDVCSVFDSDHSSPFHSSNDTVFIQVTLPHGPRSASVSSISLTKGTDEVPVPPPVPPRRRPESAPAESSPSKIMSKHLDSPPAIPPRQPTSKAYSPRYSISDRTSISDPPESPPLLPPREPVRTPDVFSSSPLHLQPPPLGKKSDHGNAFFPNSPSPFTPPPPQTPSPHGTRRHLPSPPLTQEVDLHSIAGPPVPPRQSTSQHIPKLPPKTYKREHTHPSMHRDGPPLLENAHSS
# method description: Inhibition of human N-terminal GST-tagged K-RasG12C mutant/human N-terminal His-tagged SOS1 preincubated for 2 mis followed by SOS1 addition and measured after 20 mins in presence of GDP-Dy647P1 by HTRF assay
Below, each entry is listed alongside its reported pIC50.
Please note pIC50 is a logarithmic value: minus log10 of concentration in mol/L. Answer with that number alone.

Cc1nc(NC(C)c2ccc(-c3ccccc3CN(C)C)s2)c2cc(N3CCN(Cc4cccnc4)CC3)ncc2n1 (centres undefined) ... 7.07

Input line: Given Cc1nc(NC(C)c2ccc(-c3ccccc3CN(C)C)s2)c2cc(OCCN(C)C)ncc2n1 (centres undefined) , respond with its pIC50.
Output line: 7.57

Input line: Given CCCOc1cc2c(NC(C)c3ccc(-c4ccccc4CN(C)C)s3)nc(C)nc2cn1 (centres undefined) , respond with its pIC50.
Output line: 7.42

Input line: Given Cc1nc(NC(C)c2ccc(-c3ccccc3CN(C)C)s2)c2cc(N3CCNC(=O)C3)ncc2n1 (centres undefined) , respond with its pIC50.
Output line: 7.32
